- Assay System: Proteasome subunit beta (Trypanosoma cruzi) (UniProt O96673)
- Sequence (O96673 as listed by the source): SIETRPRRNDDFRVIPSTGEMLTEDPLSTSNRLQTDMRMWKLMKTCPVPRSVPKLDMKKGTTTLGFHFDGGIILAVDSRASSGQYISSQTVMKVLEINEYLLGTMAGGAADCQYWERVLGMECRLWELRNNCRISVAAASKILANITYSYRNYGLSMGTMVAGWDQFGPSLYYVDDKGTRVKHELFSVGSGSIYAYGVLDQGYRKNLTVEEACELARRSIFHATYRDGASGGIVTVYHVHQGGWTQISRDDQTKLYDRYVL
- Experiment: Trypanosoma cruzi proteasome chymotrypsin-like activity (TcProtChymo) assay. Note: in the data most compounds retested in dose-response had high values.
- Type: functional
- Design: scale not given: direction of the effect not stated beside the values
- Setup Conditions: 9.37 µM
Label rule met when Percent Effect is at or above 10%; otherwise label rule not met.

Q: In plain terms: is recorded Percent Effect at least 10% for CC(C)Oc1cccc(CNC(=O)NC(C)(C(=O)O)c2ccco2)c1 (configuration not stated) ?
Ans: rule not met

Q: Is the recorded value of Percent Effect equal to or greater than 10% for this compound? Cc1nc(CN2CCCC(NCCc3ccccc3Cl)C2)no1 (configuration not stated)
Ans: rule not met

Q: Please tell me: is the compound COc1ccc(OC)c(NC(=O)N2CCCC2c2ccco2)c1 (configuration not stated) at or over 10% in terms of Percent Effect?
Ans: rule not met

Q: Does O=C(NC1CC1)c1cc(NC(=O)N2CCCC(O)C2)ccc1Cl (configuration not stated) have a reported Percent Effect of at least 10%?
Ans: rule met

Q: Please indicate if the recorded Percent Effect for Cc1cnn(CC2CN(c3ncnc4ccsc34)CCO2)c1 (configuration not stated) meets or exceeds 10%.
Ans: rule met

Q: Say whether O=c1c2cnc(N3CCCCC3)nc2ccn1-c1ccccc1 shows Percent Effect of 10% or more.
Ans: rule met

Q: Percent Effect >= 10% for COCCN1CCC(NCc2cccnc2)C1 (configuration not stated) ?
Ans: rule not met

Q: Decide: Percent Effect of Cn1cc(CN2CCn3c(CNC(=O)c4cccn4C)cnc3C2)cn1 >= 10%?
Ans: rule met

Q: Identify whether the reported Percent Effect of the following compound is 10% or greater: CN(C)CCN(Cc1cccc(C(F)(F)F)c1)C(=O)c1cc[nH]n1
Ans: rule not met

Q: Hi team, for CCn1c(N)nc2cc(C(=O)NCCc3sccc3C)cnc21 , is the recorded Percent Effect at or above 10%?
Ans: rule met

Q: # bool: Percent Effect of Cc1cnn(CCNCC(=O)NCCOc2ccccc2)c1 >= 10%
Ans: rule not met

Q: Check if Percent Effect >= 10% (inclusive). Item: O=C(NCc1ccco1)[C@H]1C[C@H]2OCC[C@H]2N(S(=O)(=O)C2CC2)C1
Ans: rule not met

###

- Assay System: Tyrosyl-tRNA synthetase, putative (Trypanosoma cruzi (strain CL Brener))
- Sequence (whole entry): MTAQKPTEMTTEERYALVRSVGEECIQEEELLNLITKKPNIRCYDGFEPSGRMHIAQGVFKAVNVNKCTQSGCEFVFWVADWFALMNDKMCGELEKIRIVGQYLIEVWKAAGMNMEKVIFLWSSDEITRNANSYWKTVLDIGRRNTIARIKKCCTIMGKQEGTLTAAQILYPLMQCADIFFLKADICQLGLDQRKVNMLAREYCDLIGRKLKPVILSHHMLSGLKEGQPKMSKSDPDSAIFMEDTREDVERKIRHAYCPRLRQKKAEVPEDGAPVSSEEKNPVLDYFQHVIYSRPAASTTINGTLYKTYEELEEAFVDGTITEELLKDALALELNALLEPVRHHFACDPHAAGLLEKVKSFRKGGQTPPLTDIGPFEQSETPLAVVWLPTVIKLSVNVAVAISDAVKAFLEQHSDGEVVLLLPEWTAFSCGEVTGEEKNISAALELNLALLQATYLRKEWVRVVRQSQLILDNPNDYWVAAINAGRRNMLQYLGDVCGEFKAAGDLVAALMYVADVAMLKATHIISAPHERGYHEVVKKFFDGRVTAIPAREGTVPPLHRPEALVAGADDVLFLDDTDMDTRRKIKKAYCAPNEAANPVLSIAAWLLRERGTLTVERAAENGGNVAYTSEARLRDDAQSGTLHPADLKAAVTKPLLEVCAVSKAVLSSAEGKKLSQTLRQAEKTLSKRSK
- Experiment: Trypanosoma cruzi tyrosyl tRNA synthetase (TcYRS) SOP
- Assay type: functional
- Design: scale not given: direction of the effect not stated beside the values
- Setup Conditions: 30 µM
Provide the recorded Percent Effect for the entries that follow.
Unit % implied. Number only.

Percent Effect recorded for this molecule, CCc1ncncc1C(=O)N1CCN(Cc2c(C)noc2C)CC1 , is 16.1

# Percent Effect (molecule: CCC(CC)NC(=O)Cn1nc(C)nc1-c1ccccc1 ) is 11.1

The molecule identified as CCc1nccn1C1CCCN(C(=O)c2cc3nc(C)ccc3o2)C1 (stereo not given) registered its Percent Effect at 3.7

Just so you know, measured Percent Effect for Cc1cc(CN2CCOC(CN(C)C)C2)no1 (stereo not given) came out at 1.22

Note to self: Percent Effect recorded for O=C(NCC(Cc1cccc(F)c1)N1CCCC1=O)c1ccccc1 (stereo not given) was 5

Memo: CCN(CC)C(C(=O)NCc1ccc(N2CCCC2)nc1)C(C)C (stereo not given) , reported Percent Effect: 1.24

Entry CCN1CCN(Cc2coc(-c3cccc(F)c3)n2)CC1 — recorded Percent Effect = 12.2

Looking up CCOC(=O)[C@]12CCCN(Cc3ccco3)C[C@H]1CN(CCN(C)C)C2 , I found its Percent Effect recorded as 8.97

Value of Percent Effect reported for the molecule COCCn1nc(C(=O)N2CCCC2c2cccc(F)c2)ccc1=O (stereo not given) is -2.44

Item: O=C(NC1=NCCCN1c1ccc(Cl)cc1)c1cccc(Cl)c1 | Percent Effect: -8.64

So for COc1cccc(CN2CCN(C(=O)CN3CCOCC3)CC2)n1 , the logged Percent Effect turned out to be 6.17

Record CC(O)CN1CCN(C(=O)CN(C)c2cnccn2)CC1 (stereo not given) . Reported Percent Effect: 4.88

// Percent Effect lookup, molecule = O=C(Nc1nc2c(s1)CCC2)c1cccnc1N1CCOCC1 , result: -2.6

Measured Percent Effect of CCOc1ccc(N2CCCN=C2NC(=O)c2ccccc2C)cc1 : 16.1

Short answer for Cc1noc(CN(Cc2ccc3c(c2)OCO3)Cc2ccc(C)o2)n1 : Percent Effect was 13.6

Summary for this molecule, CCNc1cc2c(nn1)CCN(C(=O)CC1CCCCC1)C2 : Percent Effect is 8.86

Input Cc1ccc(CN2CCc3ncnc(C4CCOC4)c3CC2)s1 (stereo not given) . Output Percent Effect: 25

Record COc1c(CNCc2cnn(C)c2)c(C(C)C)nn1C . Reported Percent Effect: 21.9

Note to self: Percent Effect recorded for Cc1csc(N2CCCN(C(=O)C(C)n3ccnc3)CC2)n1 (stereo not given) was 15.8

Input CCn1ccnc1CN1CCN(CCOc2ccccc2OC)CC1 . Output Percent Effect: 7.32

Kindly note the recorded Percent Effect for CCCn1ccc(C(=O)N2CCC(C)CC2)n1 , which is 18.5

Noted for c1cnnc(N2CCCC2CNCc2cnc(N3CCCC3)nc2)c1 (stereo not given) : its Percent Effect reads 0

Data point: COCCOc1ccc(NC(=O)C2CCC2)cn1 ; Percent Effect = 16.5

The reported Percent Effect of the molecule COCC1c2c(cnn2CC2CC2)CCN1Cc1cccs1 (stereo not given) was -2.5

So for Cc1cc(N2CCCCCC2)n2nc(C)c(C)c2n1 , the logged Percent Effect turned out to be 12.8

###

- Assay System: Sialic acid-binding Ig-like lectin 9 (Homo sapiens) (UniProt Q9Y336)
- Sequence (Q9Y336 whole entry): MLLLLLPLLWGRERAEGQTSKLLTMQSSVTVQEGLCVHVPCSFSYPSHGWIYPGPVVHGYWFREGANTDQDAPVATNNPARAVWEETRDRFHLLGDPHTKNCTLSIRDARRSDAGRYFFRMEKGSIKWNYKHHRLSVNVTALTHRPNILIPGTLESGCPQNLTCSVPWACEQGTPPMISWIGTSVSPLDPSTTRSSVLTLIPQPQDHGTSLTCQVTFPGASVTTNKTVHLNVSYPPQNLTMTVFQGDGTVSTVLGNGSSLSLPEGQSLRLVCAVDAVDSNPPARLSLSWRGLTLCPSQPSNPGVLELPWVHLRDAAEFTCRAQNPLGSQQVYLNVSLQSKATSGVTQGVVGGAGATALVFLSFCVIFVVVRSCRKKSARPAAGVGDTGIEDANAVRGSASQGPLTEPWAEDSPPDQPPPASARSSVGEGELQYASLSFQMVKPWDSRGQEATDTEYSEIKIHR
- Experiment: Hs-Siglec9 ALPHAscreen SOP 20170721
- Set-up: scale not given: direction of the effect not stated beside the values
- Setup Conditions: 10 µM
Measured Endpoint: Percent Effect (%)
Kindly answer with a numeric value in %, unit omitted.

The observed Percent Effect for CCS(=O)(=O)N1Cc2nccn2CC(Cn2nc(C)nc2C)C1 (configuration not stated) when tested with Sialic acid-binding Ig-like lectin 9 (Homo sapiens) (UniProt Q9Y336) stands at 32.6

Let me check: CCOCCN1CCN(Cc2nnc(C3CC3)o2)CC1CC (configuration not stated) , system Sialic acid-binding Ig-like lectin 9 (Homo sapiens) (UniProt Q9Y336), measured Percent Effect is 17.7

Sialic acid-binding Ig-like lectin 9 (Homo sapiens) (UniProt Q9Y336) Percent Effect of NC(=O)C1CCN(C(=O)CCn2ccc3cc(Br)ccc32)CC1 is 21.5

Value (Percent Effect, Sialic acid-binding Ig-like lectin 9 (Homo sapiens) (UniProt Q9Y336)) for record CCC(=O)NCc1cc(Br)c(OC)c(OC)c1 = 4.49

Reported Sialic acid-binding Ig-like lectin 9 (Homo sapiens) (UniProt Q9Y336) Percent Effect for item Cc1csc(N2CCN(C(=O)Cc3ccc(C)s3)CC2)n1 was 4.82

The reported Percent Effect value, Sialic acid-binding Ig-like lectin 9 (Homo sapiens) (UniProt Q9Y336), for Cc1cc(-c2nnn(CCC(N)=O)n2)ccc1F reads 8.1

Form: item CC(O)CN1CCN(C(=O)c2cc3ccccc3c(=O)[nH]2)CC1 (configuration not stated) ; test system Sialic acid-binding Ig-like lectin 9 (Homo sapiens) (UniProt Q9Y336); Percent Effect: -2.11

For CCC(=O)N1CCN(Cc2cc(-c3ccncc3)nn2C)CC1 on Sialic acid-binding Ig-like lectin 9 (Homo sapiens) (UniProt Q9Y336), measured Percent Effect was 5.24

The compound CCN1CCN(C(=O)C(C)N2CCN(Cc3nccn3C)CC2)CC1 (configuration not stated) , when measured on Sialic acid-binding Ig-like lectin 9 (Homo sapiens) (UniProt Q9Y336), yielded Percent Effect of 6.16

Measured on Sialic acid-binding Ig-like lectin 9 (Homo sapiens) (UniProt Q9Y336), Cc1noc(C)c1C(=O)NCC(C)N(C)C (configuration not stated) has a documented Percent Effect of -9.99

The reported Percent Effect value, Sialic acid-binding Ig-like lectin 9 (Homo sapiens) (UniProt Q9Y336), for COc1ccc(C2CCCN2C(=O)c2cc3c([nH]c2=O)CCC3)cc1 (configuration not stated) reads -3.27

The reported Sialic acid-binding Ig-like lectin 9 (Homo sapiens) (UniProt Q9Y336) Percent Effect of Cn1cnc(S(=O)(=O)NCCCN2CCOCC2)c1Cl is -2.1
